# Lookup of reported IC50 keyed by entry
Target: Avi-KRAS G12C (1-169) GppNHp/RAF1 RBD-3×FLAG (52-151) (Homo sapiens, UniProt P01116, G12C)
Construct: Avi-KRAS G12C (1-169) GppNHp
Sequence (P01116 1-169 isoform P01116-2 G12C limits assumed): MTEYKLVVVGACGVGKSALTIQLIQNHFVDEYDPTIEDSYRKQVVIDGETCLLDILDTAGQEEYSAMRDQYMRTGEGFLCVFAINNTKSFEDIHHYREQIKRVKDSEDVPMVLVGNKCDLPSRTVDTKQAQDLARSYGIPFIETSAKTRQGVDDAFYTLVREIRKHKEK
Assay: KRAS G12C-effector (RAF1 RBD) protein:protein interaction HTRF disruption assay
Settings: PPI HTRF

• C=CC(=O)N1CCC(N(C)c2nc(OC[C@@H]3C[C@@H](F)CN3C)nc3c(F)c(-c4ccc(F)c5sc(N)c(C#N)c45)ncc23)[C@H]1C (stereo partly drawn) = ≤ 500 nM
• C=CC(=O)N1CC[C@@H](N(C)c2nc(OC[C@@]34CCCN3C[C@H](F)C4)nc3nc(-c4ccc(F)c5sc(N)c(C#N)c45)ccc23)C1 = ≤ 500 nM
• C=CC(=O)N1CC[C@@H](N(C)c2nc(OC[C@@H]3CC4(CC4)CN3C)nc3c(F)c(-c4ccc(F)c5sc(N)c(C#N)c45)ncc23)[C@H]1C = ≤ 500 nM
• C=CC(=O)N1CC[C@@H](N(C)c2nc(OC[C@@]34CCCN3C[C@H](F)C4)nc3c(F)c(-c4ccc(F)c5sc(N)c(C#N)c45)ncc23)[C@@H]1CC = 500 to 5000 nM
• C=CC(=O)N1CC[C@@H](N(C)c2nc(OC[C@@]34CCCN3C[C@H](F)C4)nc3c(Cl)c(-c4ccc(F)c5sc(N)c(C#N)c45)ncc23)[C@H]1CC = ≤ 500 nM

Switching to the query record.
Ask | Indicate the recorded IC50 value for this compound: C=CC(=O)N1CC[C@@H](N(C)c2nc(OC[C@@H]3CC4(CC4)CN3C)nc3c(F)c(-c4ccc(F)c5sc(N)c(C#N)c45)ncc23)[C@H]1COC
Reply | ≤ 500 nM

----------
Target: Avi-KRAS G12C (1-169) GppNHp/RAF1 RBD-3×FLAG (52-151) (Homo sapiens, UniProt P01116, G12C)
Construct: Avi-KRAS G12C (1-169) GppNHp
Assay: KRAS G12C-effector (RAF1 RBD) protein:protein interaction HTRF disruption assay
Conditions: PPI HTRF
pIC50: −log10 of the molar value.
# Lookup of reported pIC50 keyed by entry

Sample records with pIC50:
* C=CC(=O)N1CC[C@@H](N(C)c2nc(OC[C@@H]3CCCN3C)nc3c(F)c(-c4ccc(F)c5sc(N)c(C#N)c45)ncc23)[C@H]1COC [Compound 26] | ≥ 6.30
* C=CC(=O)N1CC[C@@H](N(C)c2nc(OC[C@@]34CCCN3C[C@H](F)C4)nc3c(F)c(-c4ccc(F)c5sc(N)c(C#N)c45)ncc23)[C@H]1C [Compound 17] | ≥ 6.30
* C=CC(=O)N1CC[C@@H](N(C)c2ncnc3c(F)c(-c4ccc(F)c5sc(N)c(C#N)c45)ncc23)[C@H]1C [Compound 36] | 4.70 to 5.30
* C=CC(=O)N1CCC(N(C)c2nc(OC[C@@]34CCCN3C[C@H](F)C4)nc3c(Cl)c(-c4ccc(F)c5sc(N)c(C#N)c45)ncc23)[C@H]1COC (mixture of isomers) [Compound 29] | ≥ 6.30
* C=CC(=O)N1CCC(N(C)c2nc(OC[C@@H]3C[C@@H](OC)CN3C)nc3c(F)c(-c4ccc(F)c5sc(N)c(C#N)c45)ncc23)[C@H]1C (stereo partly drawn) [Compound 28] | ≥ 6.30

Switching to the query record.
Ask | Fill in pIC50 for C=CC(=O)N1C[C@H](N(C)c2nc(OC[C@@]34CCCN3C[C@H](F)C4)nc3cc(-c4ccc(F)c5sc(N)c(C#N)c45)c(C(F)(F)F)nc23)C[C@H]1C [Compound 13] tested with Avi-KRAS G12C (1-169) GppNHp/RAF1 RBD-3×FLAG (52-151) (Homo sapiens, UniProt P01116, G12C).
Reply | ≥ 6.30

----------
System: pERK in NCI-H358 cells
Assay: Cell-based pERK HTRF assay
Settings: Homo sapiens, 0.5 h, 30 min incubation
pIC50: −log10 of the molar value.
# Lookup of reported pIC50 keyed by entry

- C=CC(=O)N1CC[C@@H](N(C)c2nc(OC[C@@]34CCCN3C[C@H](F)C4)nc3c(F)c(-c4ccc(F)c5sc(N)c(C#N)c45)ncc23)[C@@H]1C [Compound 52]: ≥ 7.00
- C=CC(=O)N1CC[C@@H](N(CC)c2nc(OC[C@@]34CCCN3C[C@H](F)C4)nc3c(F)c(-c4ccc(F)c5sc(N)c(C#N)c45)ncc23)[C@@H]1C [Compound 50]: ≥ 7.00
- C=CC(=O)N1CC[C@@H](N(C)c2nc(OC[C@@]34CCCN3C[C@H](F)C4)nc3c(Cl)c(-c4ccc(F)c5sc(N)c(C#N)c45)ncc23)[C@H]1CC [Compound 47]: ≥ 7.00
- C=CC(=O)N1CCC(N(C)c2nc(OC[C@@H]3C[C@@H](F)CN3C)nc3c(F)c(-c4ccc(F)c5sc(N)c(C#N)c45)ncc23)[C@H]1COC (stereo partly drawn) [Compound 27]: 6.00 to 7.00
- C=CC(=O)N1CCC(N(CC)c2nc(OC[C@@]34CCCN3C[C@H](F)C4)nc3c(F)c(-c4ccc(F)c5sc(N)c(C#N)c45)ncc23)[C@H]1CC (stereo partly drawn) [Compound 40]: 6.00 to 7.00

Switching to the query record.
Ask | Indicate the recorded pIC50 value for this molecule: C=CC(=O)N1CC[C@@H](N(C)c2nc(OC[C@@]34CCCN3C[C@H](F)C4)nc3c(F)c(-c4ccc(F)c5sc(N)c(C#N)c45)ncc23)C1 [Compound 6]
Reply | ≥ 7.00

----------
# Lookup of reported IC50 keyed by entry
Test system: pERK in NCI-H358 cells
Test: Cell-based pERK HTRF assay
Conditions: Homo sapiens, 0.5 h, 30 min incubation

Sample records with IC50:
* C=CC(=O)N1CCC(N(CC)c2nc(OC[C@@]34CCCN3C[C@H](F)C4)nc3c(Cl)c(-c4ccc(F)c5sc(N)c(C#N)c45)ncc23)[C@H]1COC (stereo partly shown) [Compound 30] | 100 to 1000 nM
* C=CC(=O)N1CCC(N(C)c2nc(OC[C@@]34CCCN3C[C@H](F)C4)nc3c(Cl)c(-c4ccc(F)c5sc(N)c(C#N)c45)ncc23)[C@H]1CC (stereo partly shown) [Compound 38] | ≤ 100 nM
* C=CC(=O)N1CC[C@@H](N(C)c2nc(OC[C@@]34CCCN3C[C@H](F)C4)nc3c(F)c(-c4ccc(F)c5sc(N)nc45)ncc23)C1 [Compound 4] | > 1000 nM

Ask | Indicate the recorded IC50 value for this compound: C=CC(=O)N1CC[C@@H](N(CC)c2nc(OC[C@@]34CCCN3C[C@H](F)C4)nc3c(Cl)c(-c4ccc(F)c5sc(N)c(C#N)c45)ncc23)[C@@H]1CC [Compound 49]
Reply | 100 to 1000 nM

Ask | Indicate the recorded IC50 value for this compound: C=CC(=O)N1CCC(N(C)c2nc(OC[C@@H]3C[C@@H](OC)CN3C)nc3c(F)c(-c4ccc(F)c5sc(N)c(C#N)c45)ncc23)[C@H]1COC (stereo partly shown) [Compound 20]
Reply | 100 to 1000 nM

Ask | Indicate the recorded IC50 value for this compound: C=CC(=O)N1C[C@@H](F)[C@@H](N(CC)c2nc(OC[C@@]34CCCN3C[C@H](F)C4)nc3c(F)c(-c4ccc(F)c5sc(N)c(C#N)c45)ncc23)C1 [Compound 18]
Reply | ≤ 100 nM

Ask | Indicate the recorded IC50 value for this compound: C=CC(=O)N1CCC(N(C)c2nc(OCCOC)nc3c(F)c(-c4ccc(F)c5sc(N)c(C#N)c45)ncc23)[C@H]1C (stereo partly shown) [Compound 31]
Reply | > 1000 nM

----------
Tested on: pERK in NCI-H358 cells
Assay: Cell-based pERK HTRF assay
Details: Homo sapiens, 0.5 h, 30 min incubation
Procedure: pERK HTRF assays (Perkin Elmer) were used to determine the effectiveness of compounds of the present disclosure in disrupting KRAS G12C protein/effector signaling in cells. […] Samples were homogenized by pipetting up and down and then transferred (16 μL of cell lysates) from the 96-well cell culture plate to two wells of the HTRF 384-well detection plate containing the antibody solution. […] Therefore, readings can be made between 4 and 24 h of incubation. […]
pIC50: −log10 of the molar value.
Result type: pIC50

* C=CC(=O)N1CC[C@@H](N(C)c2nc(OC[C@@]34CCCN3C[C@H](F)C4)nc3c(F)c(-c4ccc(F)c5sc(N)c(C#N)c45)ncc23)[C@H]1CC [Compound 42] | 6.00 to 7.00
* C=CC(=O)N1C[C@@H](F)[C@@H](N(C)c2nc(OC[C@@]34CCCN3C[C@H](F)C4)nc3c(F)c(-c4ccc(F)c5sc(N)c(C#N)c45)ncc23)C1 [Compound 11] | ≥ 7.00

Ask | Indicate the recorded pIC50 value for this compound: C=CC(=O)N1CC[C@@H](N(C)c2nc(N3CC(N4CC5(CC5)C4)C3)nc3c(F)c(-c4ccc(F)c5sc(N)c(C#N)c45)ncc23)C1 [Compound 14]
Reply | 6.00 to 7.00

Ask | Indicate the recorded pIC50 value for this compound: C=CC(=O)N1CCC(N(C)c2nc(OC[C@@H]3CCCN3C)nc3c(F)c(-c4ccc(F)c5sc(N)c(C#N)c45)ncc23)[C@H]1C (stereo partly shown) [Compound 22]
Reply | 6.00 to 7.00
